assay.text: Multiple ascending dose study: plasma pharmacokinetics
Type: in vivo
experimental.parameters: human, po, 100 mg, Day 14, 100 mg QD oral, read-out: AUC(0-24 h) GM (% CV)
Description: Four sequential cohorts of healthy participants (≥50 years and ≤85 years old) were treated with multiple ascending doses of Compound A up to the maximum tolerated dose (MTD). A total of 6 participants per cohort were randomized to Compound A. Proposed doses of Compound A were: Participants received Compound A capsules, orally once daily (QD) on Days 1 to 14 after an overnight fast of at least 10 hours. Compound A was administered orally with 240 milliliter (mL) (8 fluid ounces) of water. […]
assay.metric: AUC(0-t) (ng·h/mL)

>>> assay_value("COc1ncc(C)c(-c2ccc3c(c2)[nH]c(=O)c2cnn([C@H]4CCOC4)c23)c1C")
16600
